molecular target: KRAS G12C (Homo sapiens, UniProt P01116, G12C); construct: KRAS G12C (amino acid region: 1-169); assay: Inhibitory activity on the KRAS G12C nucleotide (GDP-GTP) exchange reaction; settings: Bodipy FL GDP-bound KRAS G12C 25 nM; preincubation at 25° C. for 4 hours; SOS1 100 nM, GppNHp 1 μM, reaction for 30 minutes
Sequence (P01116 1-169 isoform P01116-2 G12C): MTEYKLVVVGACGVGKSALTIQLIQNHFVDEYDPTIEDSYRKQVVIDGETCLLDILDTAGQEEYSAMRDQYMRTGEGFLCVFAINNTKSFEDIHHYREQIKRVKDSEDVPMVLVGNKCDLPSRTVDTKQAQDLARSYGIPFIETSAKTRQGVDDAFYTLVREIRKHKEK
metric: pIC50
pIC50 is defined as minus the log10 of a concentration measured in mol/L.

The molecule C=CC(=O)N1C[C@H](NC(=O)c2c(C)nc(CNc3n[nH]c4cc(Cl)c(C(C)(C)C)cc34)n2C)C2(CC2)C1 on KRAS G12C (Homo sapiens, UniProt P01116, G12C): pIC50 was 6.52

The molecule C=CC(=O)N1C[C@H](NC(=O)c2c(F)nc(CNc3n[nH]c4cc(Cl)c(C(C)(C)C)cc34)n2C)[C@@H](F)C1 on KRAS G12C (Homo sapiens, UniProt P01116, G12C): pIC50 was 7.80

The molecule C=CC(=O)N1CC(NC(=O)c2c(Cl)nc(CNc3n[nH]c4cc(Cl)c(C(C)(C)C)cc34)n2C2CN(C(=O)OC(C)(C)C)C2)C1 on KRAS G12C (Homo sapiens, UniProt P01116, G12C): pIC50 was 8.10

---

Could you please report measured pIC50 for the items listed next?
target: KRAS G12C (Homo sapiens, UniProt P01116, G12C); construct: KRAS G12C (amino acid region: 1-169); assay: Inhibitory activity on the KRAS G12C nucleotide (GDP-GTP) exchange reaction; conditions: Bodipy FL GDP-bound KRAS G12C 25 nM; preincubation at 25° C. for 4 hours; SOS1 100 nM, GppNHp 1 μM, reaction for 30 minutes
pIC50 is defined as minus the log10 of a concentration measured in mol/L.

Please fill in: pIC50 reported for C=CC(=O)N1CC(NC(=O)c2c(Cl)nc(CNc3n[nH]c4cc(Cl)c(C(C)(C)C)cc34)n2-c2ccccn2)C1 [Example 94] = 6.93

Please fill in: pIC50 reported for C=CC(=O)N1CC(NC(=O)c2c(Cl)nc(CNc3n[nH]c4cc(Cl)c(C(=C)C(F)(F)F)cc34)n2C(C)C)C1 [Example 43] = 6.09

Please fill in: pIC50 reported for C=CC(=O)N1C[C@@H](NC(=O)c2c(C)nc(CNc3n[nH]c4cc(Cl)c(C(C)(C)C)cc34)n2C)[C@H]1C (relative stereo) [Example 52] = 7.42

Please fill in: pIC50 reported for C=CC(=O)N1CC(NC(=O)c2c(C)nc(CNc3n[nH]c4ccc(C(C)(C)C)cc34)n2C(C)C)C1 [Example 42] = 7.17

---

biological target: KRAS G12C (Homo sapiens, UniProt P01116, G12C); construct: KRAS G12C (amino acid region: 1-169); assay: Inhibitory activity on the KRAS G12C nucleotide (GDP-GTP) exchange reaction; conditions: Bodipy FL GDP-bound KRAS G12C 25 nM; preincubation at 25° C. for 4 hours; SOS1 100 nM, GppNHp 1 μM, reaction for 30 minutes
Counter-ions that a name gives are not always drawn.
Binarize IC50 at 100 nM; below is fulfilled, at or above is not fulfilled.

Q) Lab log: compare recorded IC50 with 100 nM; is it strictly lower for C=CC(=O)N1CC(NC(=O)c2c(-c3ccccc3)nc(CNc3n[nH]c4cc(Cl)c(C(C)(C)C)cc34)n2C)C1 [Reference Example 3, reference compound] ?
A) not fulfilled

Q) Lab log: compare recorded IC50 with 100 nM; is it strictly lower for C=CC(=O)N1CC(NC(=O)c2cnc(CNc3n[nH]c4cc(Cl)c(C(C)(C)C)cc34)n2Cc2cc(OC)cc(OC)c2)C1 [Example 88] ?
A) not fulfilled

Q) Lab log: compare recorded IC50 with 100 nM; is it strictly lower for C=CC(=O)N1CC[C@@H](N(C)C(=O)c2cnc(CNc3n[nH]c4cc(Cl)c(C(C)(C)C)cc34)n2C)C1 [Example 77] ?
A) not fulfilled

Q) Lab log: compare recorded IC50 with 100 nM; is it strictly lower for C=CC(=O)N1CC(NC(=O)c2c(C(F)F)nc(CNc3n[nH]c4cc(Cl)c(C(C)(C)C)cc34)n2C2CCN(C(C)C)C2)C1 (centres unmarked) [Example 93, formate] ?
A) fulfilled

Q) Lab log: compare recorded IC50 with 100 nM; is it strictly lower for C=CC(=O)N1CC(NC(=O)c2c(C(F)F)nc(CNc3n[nH]c4cc(Cl)c(C(C)(C)C)cc34)n2C2CCN(CC)C2)C1 (centres unmarked) [Example 92] ?
A) fulfilled

Q) Lab log: compare recorded IC50 with 100 nM; is it strictly lower for C=CC(=O)N1CC(NC(=O)c2c(C)nc(CNc3n[nH]c4cc(Cl)c(C(C)(C)C)cc34)n2CCOC)C1 [Example 14] ?
A) fulfilled

Q) Lab log: compare recorded IC50 with 100 nM; is it strictly lower for CC#CC(=O)N1CC(NC(=O)c2c(C)nc(CNc3n[nH]c4cc(Cl)c(C(C)(C)C)cc34)n2C(C)C)C1 [Example 82] ?
A) not fulfilled

Q) Lab log: compare recorded IC50 with 100 nM; is it strictly lower for C=CC(=O)N1CC(NC(=O)c2c(Cl)nc(CNc3n[nH]c4cc(Cl)c(C(C)(C)C)cc34)n2[C@@H]2CCN(c3ccccn3)C2)C1 [Example 124] ?
A) fulfilled
